# Tested on: WT human SLACK (Homo sapiens)
# Sequence (Q5JUK3 1-1235 isoform Q5JUK3-3): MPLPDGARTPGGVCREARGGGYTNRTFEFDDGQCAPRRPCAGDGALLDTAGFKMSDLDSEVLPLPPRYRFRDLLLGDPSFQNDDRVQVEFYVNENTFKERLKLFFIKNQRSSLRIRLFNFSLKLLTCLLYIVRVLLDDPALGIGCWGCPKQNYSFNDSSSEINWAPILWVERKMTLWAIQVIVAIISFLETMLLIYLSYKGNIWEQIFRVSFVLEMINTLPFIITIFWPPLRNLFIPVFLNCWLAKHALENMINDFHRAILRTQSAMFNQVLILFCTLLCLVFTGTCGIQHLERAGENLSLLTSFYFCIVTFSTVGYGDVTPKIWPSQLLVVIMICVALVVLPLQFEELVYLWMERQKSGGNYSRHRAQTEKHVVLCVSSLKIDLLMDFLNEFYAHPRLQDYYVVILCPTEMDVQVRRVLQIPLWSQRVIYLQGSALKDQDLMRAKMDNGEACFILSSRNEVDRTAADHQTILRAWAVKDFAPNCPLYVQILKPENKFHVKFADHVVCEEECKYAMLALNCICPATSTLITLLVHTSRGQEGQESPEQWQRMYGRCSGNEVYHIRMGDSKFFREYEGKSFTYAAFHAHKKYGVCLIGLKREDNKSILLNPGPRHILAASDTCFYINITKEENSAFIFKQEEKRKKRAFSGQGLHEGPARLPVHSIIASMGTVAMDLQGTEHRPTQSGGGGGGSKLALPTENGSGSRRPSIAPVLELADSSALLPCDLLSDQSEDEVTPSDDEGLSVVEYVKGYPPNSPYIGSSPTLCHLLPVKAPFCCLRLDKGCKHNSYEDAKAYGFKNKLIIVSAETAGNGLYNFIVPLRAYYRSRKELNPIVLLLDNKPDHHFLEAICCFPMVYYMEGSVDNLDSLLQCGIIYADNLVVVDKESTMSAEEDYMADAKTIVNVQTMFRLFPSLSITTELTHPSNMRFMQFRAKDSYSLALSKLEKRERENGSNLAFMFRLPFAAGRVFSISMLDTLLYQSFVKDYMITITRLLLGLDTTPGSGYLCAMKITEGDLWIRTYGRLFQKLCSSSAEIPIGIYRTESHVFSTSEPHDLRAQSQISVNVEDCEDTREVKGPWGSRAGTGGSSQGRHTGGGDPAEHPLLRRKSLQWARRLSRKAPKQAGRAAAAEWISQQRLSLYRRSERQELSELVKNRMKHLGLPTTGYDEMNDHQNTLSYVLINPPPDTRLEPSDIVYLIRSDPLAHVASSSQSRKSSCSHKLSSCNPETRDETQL
# Protocol text: Tl+ flux assay in HEK-293 cells stably expressing WT human SLACK
# Format: cell-based
# Assay context: CRC; IC50 for compounds of mode Inh (also cells printed Inactive)
Endpoint name: IC50 / EC50

Completed entries (count: 5):
O=S(=O)(c1ccc(F)cc1)N1CC(c2nc(-c3ccsc3)no2)C1 = Inactive
Cc1ccc2cccc(S(=O)(=O)N3CC(c4nc(-c5ccc(F)cc5)no4)C3)c2n1 = 1.1 µM
CCOc1ncccc1S(=O)(=O)N1CC(c2nc(-c3ccc(F)cc3)no2)C1 = >10 µM
CCOc1ccccc1S(=O)(=O)N1CC(c2nc(-c3ccncc3)no2)C1 = Inactive
[2H]C([2H])([2H])C([2H])([2H])Oc1ccccc1S(=O)(=O)N1CC(c2nc(-c3ccc(F)cc3)no2)C1 = 5.4 µM

Problem: # query: IC50 / EC50 | item `CCOc1ccccc1S(=O)(=O)N1CCC(c2nc(-c3ccc(F)cc3)no2)CC1` | system: WT human SLACK (Homo sapiens)
Result: 4.9 µM

Problem: Another molecule to check: `Cc1nnc2c(S(=O)(=O)N3CC(c4nc(-c5ccc(F)cc5)no4)C3)cccn12`
Result: Inactive

Problem: Moving on to the next molecule: `CCOc1ccccc1S(=O)(=O)N1CC(c2cc(-c3ccc(F)cc3)on2)C1`
Result: Inactive
